Origin of the recorded values: the supplement of paper PMC11208160

For each entry below, report its recombinant barcode read abundance (log10) value.
experiment: recombinant barcode read abundance after kanamycin selection (control-corrected) (log10(CPM+1)); higher = more efficient recombination; sequences stand for … in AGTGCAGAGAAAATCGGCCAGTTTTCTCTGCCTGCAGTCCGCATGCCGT…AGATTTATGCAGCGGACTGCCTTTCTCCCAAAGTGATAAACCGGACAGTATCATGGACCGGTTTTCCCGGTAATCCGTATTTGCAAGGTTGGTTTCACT; site = the 11-nt target;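 also: IS621 recombinase and bridge RNA in Escherichia coli cells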
One number for each entry.

Answered examples (3):
TTCTAGACTTGGGTTCTAACCTGTTGCCA (site GTCTATACTTG) | 0.16
GCCATCACTTGGGTTCTAACCTGTTGCCT (site GCCATAACTAG) | 0.00743
TTGGTTCCTTGGGTTCTAACCTGTTGCCT (site TTGGTGCCTAG) | 0.43

Lab note: each sequence below needs its recombinant barcode read abundance (log10) filled in.
1. ACTTGCCCTTGGGTTCTAACCTGTTGCCT (site AGTTGCCCTAG)
2. TCTTCCACTTGGGTTCTAACCTGTTGCCT (site GCTTCCACTAG)

1: 0.00674; 2: 0.0327
